System: Bacillus subtilis
Experiment: Antibacterial activity against Bacillus subtilis
Format: functional
We begin with a simple list: items and their reported MIC.
observation_type: MIC (µM)

>>> quantitative_result("CN1CCCN(Cc2ccc(F)cc2)P12=NP(N1CCCC1)(N1CCCC1)=NP(N1CCCC1)(N1CCCC1)=N2 (centres undefined)")
9.8
>>> quantitative_result("CCN1CCN(Cc2ccc(F)cc2)P12=NP(N1CCCC1)(N1CCCC1)=NP(N1CCCC1)(N1CCCC1)=N2 (centres undefined)")
9.8
>>> quantitative_result("CCN1CCN(Cc2ccc(F)cc2)P12=NP(N1CCCCC1)(N1CCCCC1)=NP(N1CCCCC1)(N1CCCCC1)=N2 (centres undefined)")
156
>>> quantitative_result("CN1CCN(Cc2ccc(F)cc2)P12=NP(N1CCCC1)(N1CCCC1)=NP(N1CCCC1)(N1CCCC1)=N2 (centres undefined)")
9.8
